# Measurement target: [35S]-TBPS binding, rat brain cortical membranes (GABA receptor complex)
# Test summary: Steroid inhibition of [35S]-TBPS binding
# Condition label: 3 nM [35S]-TBPS, 5 μM GABA
pIC50: −log10 of the molar value.
Quantity measured: pIC50

>>> print(df.to_string())
                        structure_as_smiles  quantity_measured    test_value
0  C[C@@]1(O)CC[C@H]2[C@H](CC[C@@H]3[C@@H]2CC[C@]2(C)[C@@H](C(=O)Cn4ccc(C(F)(F)F)n4)CC[C@@H]32)C1              pIC50        > 8.00
1  C[C@@]1(O)CC[C@H]2[C@@H](CC[C@@H]3[C@@H]2CC[C@]2(C)[C@@H](C(=O)Cn4cccn4)CC[C@@H]32)C1              pIC50  6.30 to 7.00
2  C[C@]12CC[C@H]3[C@@H](CC[C@H]4C[C@@](O)(CF)CC[C@@H]43)[C@@H]1CC[C@@H]2C(=O)Cn1cccn1              pIC50  6.30 to 7.00
3  Cc1ccn(CC(=O)[C@H]2CC[C@H]3[C@@H]4CC[C@@H]5C[C@](C)(O)CC[C@@H]5[C@H]4CC[C@]23C)n1              pIC50  7.30 to 8.00
4  C[C@@H]1C[C@H]2[C@@H](CC[C@@H]3[C@@H]2CC[C@]2(C)[C@@H](C(=O)Cn4cccn4)CC[C@@H]32)C[C@]1(C)O              pIC50  6.30 to 7.00
5  Cc1ccnn1CC(=O)[C@H]1CC[C@H]2[C@@H]3CC[C@@H]4C[C@](C)(O)CC[C@@H]4[C@H]3CC[C@]12C              pIC50  7.00 to 7.30

###

# Measurement target: GABAA receptor α1β2γ2 (Homo sapiens, UniProt P14867+P47870)
# Construct: expressed in transfected cells
# Sequence (P14867 28-456): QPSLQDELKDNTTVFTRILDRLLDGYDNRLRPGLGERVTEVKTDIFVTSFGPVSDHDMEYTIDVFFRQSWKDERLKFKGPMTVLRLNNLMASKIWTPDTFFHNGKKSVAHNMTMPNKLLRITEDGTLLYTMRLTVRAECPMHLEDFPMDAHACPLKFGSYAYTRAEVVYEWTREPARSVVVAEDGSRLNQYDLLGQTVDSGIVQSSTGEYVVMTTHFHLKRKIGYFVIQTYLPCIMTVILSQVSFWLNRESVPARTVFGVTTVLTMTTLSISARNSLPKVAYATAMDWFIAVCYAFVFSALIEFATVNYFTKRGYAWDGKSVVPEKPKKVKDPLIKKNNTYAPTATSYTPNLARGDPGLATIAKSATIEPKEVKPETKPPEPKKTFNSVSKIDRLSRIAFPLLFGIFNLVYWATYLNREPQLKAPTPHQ
# Sequence (P47870 25-512 limits assumed): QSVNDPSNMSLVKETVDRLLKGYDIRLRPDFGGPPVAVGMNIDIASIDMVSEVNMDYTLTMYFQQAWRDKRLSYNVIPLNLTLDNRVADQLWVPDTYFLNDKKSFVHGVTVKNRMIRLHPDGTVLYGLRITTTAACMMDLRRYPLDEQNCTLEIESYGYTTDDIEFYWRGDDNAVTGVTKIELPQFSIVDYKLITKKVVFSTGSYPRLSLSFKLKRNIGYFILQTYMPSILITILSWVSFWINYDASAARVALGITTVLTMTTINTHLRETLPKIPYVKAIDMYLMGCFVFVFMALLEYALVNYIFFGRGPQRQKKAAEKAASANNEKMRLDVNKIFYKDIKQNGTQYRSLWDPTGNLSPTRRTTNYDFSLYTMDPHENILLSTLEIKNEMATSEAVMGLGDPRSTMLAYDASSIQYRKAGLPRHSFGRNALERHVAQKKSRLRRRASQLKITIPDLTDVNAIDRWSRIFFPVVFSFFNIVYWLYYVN
# Sequence (P18507 40-475 partner): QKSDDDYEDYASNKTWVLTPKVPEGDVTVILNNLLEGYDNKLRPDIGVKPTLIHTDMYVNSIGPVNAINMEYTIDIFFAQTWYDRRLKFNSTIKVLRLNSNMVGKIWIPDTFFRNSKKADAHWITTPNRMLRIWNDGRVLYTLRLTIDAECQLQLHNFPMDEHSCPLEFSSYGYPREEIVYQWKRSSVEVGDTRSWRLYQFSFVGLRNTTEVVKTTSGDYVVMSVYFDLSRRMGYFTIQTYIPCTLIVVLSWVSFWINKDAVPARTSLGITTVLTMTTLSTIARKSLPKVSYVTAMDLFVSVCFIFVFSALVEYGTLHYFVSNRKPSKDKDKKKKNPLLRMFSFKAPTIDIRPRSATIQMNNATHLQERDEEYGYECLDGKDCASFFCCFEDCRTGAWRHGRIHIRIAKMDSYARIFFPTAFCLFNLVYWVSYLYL
# Test summary: Patch clamp electrophysiology, Qpatch in Ltk cells
# Assay type: cell-based
# Condition label: 10 μM test article, GABA EC20 2 μM, read-out: GABA (α1β2γ2) Qpatch in Ltk, % efficacy at 10 μM
Catalogue of Emax at 10 µM readings, one per entry.
Quantity measured: Emax at 10 µM

                                   molecule                        measurement_target   test_value
0  C[C@@]1(O)CC[C@H]2[C@H](CC[C@@H]3[C@@H]2CC[C@]2(C)[C@@H](C(=O)Cn4cc(F)cn4)CC[C@@H]32)C1 [SA-21]  GABAA receptor α1β2γ2 (Homo sapiens, UniProt P14867+P47870)       > 500%
1  COC[C@@]1(O)CC[C@H]2[C@H](CC[C@@H]3[C@@H]2CC[C@]2(C)[C@@H](C(=O)Cn4cc(C#N)cn4)CC[C@@H]32)C1 [SA-24]  GABAA receptor α1β2γ2 (Homo sapiens, UniProt P14867+P47870)       > 500%
2  C[C@@]1(O)CC[C@H]2[C@H](CC[C@@H]3[C@@H]2CC[C@]2(C)[C@@H](C(=O)Cn4ccc(C#N)n4)CC[C@@H]32)C1 [SA-22]  GABAA receptor α1β2γ2 (Homo sapiens, UniProt P14867+P47870)       > 500%
3  Cc1cn(CC(=O)[C@H]2CC[C@H]3[C@@H]4CC[C@@H]5C[C@](C)(O)CC[C@@H]5[C@H]4CC[C@]23C)nc1C [SA-15]  GABAA receptor α1β2γ2 (Homo sapiens, UniProt P14867+P47870)  100 to 500%
4  CC(=O)c1ccn(CC(=O)[C@H]2CC[C@H]3[C@@H]4CC[C@@H]5C[C@](C)(O)CC[C@@H]5[C@H]4CC[C@]23C)n1 [SA-5]  GABAA receptor α1β2γ2 (Homo sapiens, UniProt P14867+P47870)       > 500%
5  Cc1cnn(CC(=O)[C@H]2CC[C@H]3[C@@H]4CC[C@@H]5C[C@](C)(O)CC[C@@H]5[C@H]4CC[C@]23C)c1 [SA-6]  GABAA receptor α1β2γ2 (Homo sapiens, UniProt P14867+P47870)  100 to 500%
